meta.source: patent US10208067B2

tested on: SMN protein in SMA patient fibroblast cells (GM03813); assay: SMN protein assay (HTRF) in cultured cells; format: cell-based; details: Homo sapiens, relative to vehicle control, SMA Type 1 patient fibroblasts, 48 hours, read-out: max. fold increase of SMN protein
result type: maximal fold induction
Output: the number by itself.

Here is how some compounds turned out for maximal fold induction.
Record summary for Cc1nc2ccc(-c3cc(=O)n4cc(N5CC[C@@H](N(C)C)C5)ccc4n3)nn2n1 : reported maximal fold induction = 1.75

Record summary for CCN1CCN(c2ccc3nc(-c4ccc5nc(C)nn5n4)cc(=O)n3c2)CC1 : reported maximal fold induction = 2.02

Record summary for Cc1nc2ncc(-c3cc(=O)n4cc(N5CC6(CNC6)C5)ccc4n3)cn2n1 : reported maximal fold induction = 1.78

Record summary for Cc1nc2ncc(-c3cc(=O)n4cc(N5CCN(C)CC5)ccc4n3)cn2n1 : reported maximal fold induction = 1.68

Record summary for Cc1nc2ncc(-c3cc(=O)n4cc(N5C[C@@H](C)N[C@@H](C)C5)ccc4n3)cn2n1 : reported maximal fold induction = 1.93

Others:
Record summary for Cc1nc2ccc(-c3cc(=O)n4cc(N5C[C@H](C)N[C@@H](C)C5)ccc4n3)nn2n1 : reported maximal fold induction = 1.81

Record summary for Cc1nc2ncc(-c3cc(=O)n4cc(N5CCC(CN6CCCC6)CC5)ccc4n3)cn2n1 : reported maximal fold induction = 1.36

Record summary for Cc1nc2ccc(-c3cc(=O)n4cc(N5CCN(C6COC6)CC5)cc(C)c4n3)nn2n1 : reported maximal fold induction = 1.75

Record summary for Cc1nc2ncc(-c3cc(=O)n4cc(N5CCNC(C)(C)C5)ccc4n3)cn2n1 : reported maximal fold induction = 1.7

---

Test system: SMN protein in SMA patient fibroblast cells (GM03813)
Experiment: SMN protein assay (HTRF) in cultured cells
Type: cell-based
Details: Homo sapiens, relative to vehicle control, SMA Type 1 patient fibroblasts, 48 hours, read-out: max. fold increase of SMN protein
Protocol: The SMN HTRF (homogeneous time resolved fluorescence) assay is used to quantify the level of SMN protein in SMA patient fibroblast cells treated with test compounds. Materials used and respective sources are listed below in Table 4. Cells are thawed and cultured in DMEM-10% FBS for 72 hours. Cells are trypsinized, counted and re-suspended to a concentration of 25,000 cells/mL in DMEM-10% FBS. […]
result type: maximal fold induction

Record summary for Cc1nc2ccc(-c3cc(=O)n4cc(N5C[C@H]6CN(C)C[C@H]6C5)cc(C)c4n3)nn2n1 : reported maximal fold induction = 1.77

Others:
Record summary for Cc1nc2ncc(-c3cc(=O)n4cc(N5C[C@H](C)N[C@@H](C)C5)ccc4n3)cn2n1 : reported maximal fold induction = 1.77

Record summary for Cc1nc2ncc(-c3cc(=O)n4cc(N5CCCN(C)CC5)ccc4n3)cn2n1 : reported maximal fold induction = 1.78

---

system: SMN protein in SMA patient fibroblast cells (GM03813); assay: SMN protein assay (HTRF) in cultured cells; format: cell-based; settings: Homo sapiens, concentration producing 1.5 times SMN protein vs vehicle, SMA Type 1 patient fibroblasts, 48 hours, read-out: EC1.5x SMN protein
EC (1.5-fold) vs 0.5 µM: less than gives 1.0; not less than gives 0.0.

As a guide, the following entries are already answered.
Lookup: Please state whether EC (1.5-fold) is below 0.5 µM for Cc1nc2ccc(-c3cc(=O)n4cc(N5CCNCC5)cc(C)c4n3)nn2n1 [Example 15]
Found: 1.0

Lookup: Please state whether EC (1.5-fold) is below 0.5 µM for Cc1nc2ccc(-c3cc(=O)n4cc(N5CCN6CCC[C@@H]6C5)cc(C)c4n3)nn2n1 [Example 34]
Found: 1.0

Lookup: Please state whether EC (1.5-fold) is below 0.5 µM for Cc1nc2ccc(-c3cc(=O)n4cc(N5C[C@@H]6C[C@H]7CNC[C@]76C5)ccc4n3)nn2n1 [Example 47]
Found: 1.0

Lookup: Please state whether EC (1.5-fold) is below 0.5 µM for Cc1nc2ncc(-c3cc(=O)n4cc(N5CCN[C@H](C)C5)ccc4n3)cn2n1 [Example 24]
Found: 1.0

Lookup: Please state whether EC (1.5-fold) is below 0.5 µM for Cc1nc2ncc(-c3cc(=O)n4cc(N5CCC(CN6CCCC6)CC5)ccc4n3)cn2n1 [Example 12]
Found: 0.0

Others:
Lookup: Please state whether EC (1.5-fold) is below 0.5 µM for Cc1nc2ncc(-c3cc(=O)n4cc(N5CC[C@@H](N(C)C)C5)ccc4n3)cn2n1 [Example 3]
Found: 0.0

Lookup: Please state whether EC (1.5-fold) is below 0.5 µM for Cc1nc2ncc(-c3cc(=O)n4cc(N5CCN(C)CC5)ccc4n3)cn2n1 [Example 23]
Found: 1.0

Lookup: Please state whether EC (1.5-fold) is below 0.5 µM for Cc1nc2ncc(-c3cc(=O)n4cc(N5CC6(CN(C)C6)C5)ccc4n3)cn2n1 [Example 21]
Found: 0.0

---

system: SMN protein in SMA patient fibroblast cells (GM03813); assay: SMN protein assay (HTRF) in cultured cells; assay type: cell-based; settings: Homo sapiens, relative to vehicle control, SMA Type 1 patient fibroblasts, 48 hours, read-out: max. fold increase of SMN protein
result type: maximal fold induction
Output: the number by itself.

Here is how some compounds turned out for maximal fold induction.
Record summary for Cc1nc2ccc(-c3cc(=O)n4cc(N5CCN[C@H](C)C5)ccc4n3)nn2n1 : reported maximal fold induction = 1.82

Record summary for Cc1nc2ncc(-c3cc(=O)n4cc(N5CCNCC5)ccc4n3)cn2n1 : reported maximal fold induction = 1.9

Record summary for Cc1nc2ccc(-c3cc(=O)n4cc(N5CCNCC5)cc(C)c4n3)nn2n1 : reported maximal fold induction = 1.82

Record summary for Cc1nc2ncc(-c3cc(=O)n4cc(N5CCN[C@@H](C)C5)ccc4n3)cn2n1 : reported maximal fold induction = 1.71

Record summary for Cc1nc2ccc(-c3cc(=O)n4cc(N5CC6(CCNCC6)C5)cc(C)c4n3)nn2n1 : reported maximal fold induction = 1.9

Next compound, please.
Record summary for Cc1nc2ccc(-c3cc(=O)n4cc(N5CCNCC5)ccc4n3)nn2n1 : reported maximal fold induction = 1.81

---

Measured maximal fold induction, listed per entry.
tested on: SMN protein in SMA patient fibroblast cells (GM03813); experiment: SMN protein assay (HTRF) in cultured cells; format: cell-based; conditions: Homo sapiens, relative to vehicle control, SMA Type 1 patient fibroblasts, 48 hours, read-out: max. fold increase of SMN protein
Output: the number by itself.

Record summary for Cc1nc2ccc(-c3cc(=O)n4cc(N5C[C@@H](C)N[C@@H](C)C5)ccc4n3)nn2n1 : reported maximal fold induction = 1.76

Record summary for Cc1nc2ncc(-c3cc(=O)n4cc(N5CC[C@@H](N(C)C)C5)ccc4n3)cn2n1 : reported maximal fold induction = 1.79

Record summary for Cc1nc2ccc(-c3cc(=O)n4cc(N5CCN6CCC[C@@H]6C5)cc(C)c4n3)nn2n1 : reported maximal fold induction = 1.8

Record summary for Cc1nc2ccc(-c3cc(=O)n4cc(N5CCCN(C)CC5)cc(C)c4n3)nn2n1 : reported maximal fold induction = 1.89

---

test system: SMN protein in SMA patient fibroblast cells (GM03813); assay: SMN protein assay (HTRF) in cultured cells; format: cell-based; conditions: Homo sapiens, relative to vehicle control, SMA Type 1 patient fibroblasts, 48 hours, read-out: max. fold increase of SMN protein
result type: maximal fold induction
Output: the number by itself.

Here is how some compounds turned out for maximal fold induction.
Record summary for Cc1nc2ccc(-c3cc(=O)n4cc(N5CC6(CCNC6)C5)cc(C)c4n3)nn2n1 [Example 48] : reported maximal fold induction = 1.68

Record summary for Cc1nc2ccc(-c3cc(=O)n4cc(N5C[C@@H](C)N[C@@H](C)C5)cc(C)c4n3)nn2n1 [Example 26] : reported maximal fold induction = 1.88

Record summary for CCN1CCN(c2cc(C)c3nc(-c4ccc5nc(C)nn5n4)cc(=O)n3c2)CC1 [Example 32] : reported maximal fold induction = 1.97

Next compound, please.
Record summary for Cc1nc2ncc(-c3cc(=O)n4cc(N5CCN(C6COC6)CC5)ccc4n3)cn2n1 [Example 14] : reported maximal fold induction = 1.35
